Study System: Cysteine protease B CPB2.8ΔCTE (Leishmania mexicana)
Procedure Summary: Inhibition of Leishmania mexicana Cysteine protease B (CPB2.8deltaCTE) was obtained in a solution-phase assay
Metric: Ki (µM)

1. CC[C@H](C)[C@H](NC(=O)[C@H](CC(C)C)NC[C@H](CCCNC(=N)N)NC(=O)CNC(=O)[C@H](CC1CCCCC1)NC(=O)[C@@H](N)C(C)C)C(=O)N[C@@H](Cc1cnc[nH]1)C(=O)N[C@@H](CC(=O)O)C(=O)O
2. CC[C@H](C)[C@H](NC[C@H](Cc1ccccc1)NC(=O)[C@H](Cc1c[nH]cn1)NC(=O)[C@H](CCCCN)NC(=O)[C@@H](N)CC(=O)O)C(=O)N[C@H](C(=O)N[C@H](C(=O)N[C@@H](CCCCN)C(=O)O)C(C)C)[C@@H](C)CC
3. CC[C@H](C)[C@H](NC[C@H](Cc1ccccc1)NC(=O)[C@H](Cc1cnc[nH]1)NC(=O)[C@H](CCC(N)=O)NC(=O)[C@@H](N)CC(=O)O)C(=O)N[C@H](C(=O)N[C@H](C(=O)N[C@@H](CCC(N)=O)C(=O)O)C(C)C)[C@@H](C)CC
4. CC[C@H](C)[C@H](NC(=O)[C@H](Cc1ccccc1)NC[C@H](Cc1ccccc1)NC(=O)[C@@H](NC(=O)[C@@H]1CCCN1C(=O)[C@@H](N)CCCCN)C(C)C)C(=O)N[C@@H](CC1CCCCC1)C(=O)O
Task for the reader: rank each entry by its Ki, from the minimum upward. Write the labels out in the order the request specifies.
4, 2, 3, 1
(4: 13 µM, 2: 20 µM, 3: 30 µM, 1: 71.6 µM)
